These measurements were taken from ChEMBL document CHEMBL2203140.

System: MCF7
measurement.notes: Cytotoxicity against human MCF7 cells after 48 hrs by MTT assay
Assay type: functional, cell-based
condition.summary: MCF7, 48 h
pIC50: −log10 of the molar value.
Entries and their pIC50 values follow.

INSERT INTO results (item_smiles, experimental_result) VALUES
  ('C[C@@H]1CC[C@@]2(OC1)O[C@H]1C[C@H]3[C@@H]4CC=C5C[C@@H](O[C@@H]6O[C@H](CO)[C@@H](O)[C@H](O)[C@H]6NC(=O)NN6CCCCC6)CC[C@]5(C)[C@H]4CC[C@]3(C)[C@H]1[C@@H]2C', '< 4.30'),
  ('C[C@@H]1CC[C@@]2(OC1)O[C@H]1C[C@H]3[C@@H]4CC=C5C[C@@H](O[C@@H]6O[C@H](CO)[C@@H](O)[C@H](O)[C@H]6NC(=O)/C=C/c6ccc(F)cc6)CC[C@]5(C)[C@H]4CC[C@]3(C)[C@H]1[C@@H]2C', 4.67);

Could you now consider this next compound?
Request: Notebook: pull reported pIC50 for MCF7, entry `C[C@@H]1CC[C@@]2(OC1)O[C@H]1C[C@H]3[C@@H]4CC=C5C[C@@H](O[C@@H]6O[C@H](CO)[C@@H](O)[C@H](O)[C@H]6NC(=O)NC6CC6)CC[C@]5(C)[C@H]4CC[C@]3(C)[C@H]1[C@@H]2C`
Result: < 4.30

---

System: MCF7
measurement.notes: Cytotoxicity against human MCF7 cells after 48 hrs by MTT assay
Type: functional, cell-based
condition.summary: MCF7, 48 h
Entries annotated with measured IC50
Output spec: scalar in µM, unitless text.

INSERT INTO measurements (item_smiles, assay_system, experimental_result) VALUES
  ('COc1ccc(/C=C/C(=O)N[C@H]2[C@H](O[C@H]3CC[C@@]4(C)C(=CC[C@H]5[C@@H]6C[C@@H]7O[C@]8(CC[C@@H](C)CO8)[C@@H](C)[C@@H]7[C@@]6(C)CC[C@@H]54)C3)O[C@H](CO)[C@@H](O)[C@@H]2O)c(OC)c1', 'MCF7', 26.7);

--- query ---
Request: Requested read-out: IC50. Entry: `C[C@@H]1CC[C@@]2(OC1)O[C@H]1C[C@H]3[C@@H]4CC=C5C[C@@H](O[C@@H]6O[C@H](CO)[C@@H](O)[C@H](O)[C@H]6NC(=S)N/N=C/c6ccccc6)CC[C@]5(C)[C@H]4CC[C@]3(C)[C@H]1[C@@H]2C`
Result: 48.2

---

Item-by-item account of pIC50
System: HT-1080
measurement.notes: Cytotoxicity against human HT1080 cells after 48 hrs by MTT assay
Type: functional, cell-based
condition.summary: HT-1080, 48 h
The read-out pIC50 is expressed as -log10 of concentration in moles per litre.

// below: answered compounds
INSERT INTO results (item_smiles, experimental_result) VALUES
  ('C[C@@H]1CC[C@@]2(OC1)O[C@H]1C[C@H]3[C@@H]4CC=C5C[C@@H](O[C@@H]6O[C@H](CO)[C@@H](O)[C@H](O)[C@H]6NC(=O)NN6CCCCC6)CC[C@]5(C)[C@H]4CC[C@]3(C)[C@H]1[C@@H]2C', 4.45),
  ('CCCCCCCNC(=O)N[C@H]1[C@H](O[C@H]2CC[C@@]3(C)C(=CC[C@H]4[C@@H]5C[C@@H]6O[C@]7(CC[C@@H](C)CO7)[C@@H](C)[C@@H]6[C@@]5(C)CC[C@@H]43)C2)O[C@H](CO)[C@@H](O)[C@@H]1O', 4.37),
  ('C[C@@H]1CC[C@@]2(OC1)O[C@H]1C[C@H]3[C@@H]4CC=C5C[C@@H](O[C@@H]6O[C@H](CO)[C@@H](O)[C@H](O)[C@H]6NC(=O)NCc6ccc(F)cc6)CC[C@]5(C)[C@H]4CC[C@]3(C)[C@H]1[C@@H]2C', 4.38);

Request: # input compound: `C[C@@H]1CC[C@@]2(OC1)O[C@H]1C[C@H]3[C@@H]4CC=C5C[C@@H](O[C@@H]6O[C@H](CO)[C@@H](O)[C@H](O)[C@H]6NC(=O)/C=C/c6ccc(F)cc6)CC[C@]5(C)[C@H]4CC[C@]3(C)[C@H]1[C@@H]2C` ; wanted: its pIC50
Result: 4.46
